Give CAR-J2 EC50 (PGLALA-CAR-J activation, L363 target cells) for every item shown.
Target or test system: human GPRC5D (human, UniProt Q9NZD1 1-345)
Sequence (Q9NZD1 whole entry): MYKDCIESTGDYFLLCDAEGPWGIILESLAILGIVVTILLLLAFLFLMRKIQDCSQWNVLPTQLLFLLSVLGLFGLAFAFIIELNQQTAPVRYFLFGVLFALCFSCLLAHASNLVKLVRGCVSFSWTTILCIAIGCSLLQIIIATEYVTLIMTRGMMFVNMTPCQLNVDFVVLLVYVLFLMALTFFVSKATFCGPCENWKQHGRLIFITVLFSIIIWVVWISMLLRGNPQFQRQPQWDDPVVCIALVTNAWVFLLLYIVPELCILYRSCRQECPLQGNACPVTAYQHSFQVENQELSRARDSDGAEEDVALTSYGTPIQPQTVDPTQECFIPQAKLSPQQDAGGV
Experiment notes: cell-based or functional assay
Kindly provide the numeric value in mg/L only, without the unit symbol.

# binder P1AE5752 (antibody, V domains shown) VH: EVQLVESGGGVVQPGRSLRLSCAASGFSFSNYGMAWVRQAPGKGLEWVASISTGGGNTYYADSVKGRFTISRDNAKNTLYLQMNSLRAEDTAVYYCTRHDRGGLYWGQGTMVTVSS VL: DIVMTQSPLSLPVTPGEPASISCRSSKSLLHSNGITYVYWYLQKPGQSPQLLIYRMSNRASGVPDRFSGSGSGTDFTLKISRVEAEDVGVYHCGQLLENPYTFGQGTKLEIK ; its CAR-J2 EC50 (PGLALA-CAR-J activation, L363 target cells) = 0.509

# binder P1AE5754 (antibody, V domains shown) VH: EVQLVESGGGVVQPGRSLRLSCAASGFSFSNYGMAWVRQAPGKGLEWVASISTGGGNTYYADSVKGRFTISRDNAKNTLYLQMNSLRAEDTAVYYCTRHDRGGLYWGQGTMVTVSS VL: EIVLTQSPGTLSLSPGERATLSCRASKSLLHSNGITYVYWYQQKPGQAPRLLIYRMSNLASGIPDRFSGSGSGTDFTLTISRLEPEDFAVYHCGQLLENPYTFGQGTKLEIK ; its CAR-J2 EC50 (PGLALA-CAR-J activation, L363 target cells) = 0.00889

# binder P1AE5758 (antibody, V domains shown) VH: EVQLVESGGGLVQPGGSLRLSCAASGFSFSNYGMAWVRQAPGKGLEWVASISTGGGNTYYRDSVKGRFTISRDNAKNTLYLQMNSLRAEDTAVYYCTRHDRGGLYWGQGTMVTVSS VL: DIVMTQSPDSLAVSLGERATINCKSSKSLLHSNGITYVYWYQQKPGQPPKLLIYRMSNLASGVPDRFSGSGSGTDFTLTISSLQAEDVAVYHCGQLLENPYTFGQGTKLEIK ; its CAR-J2 EC50 (PGLALA-CAR-J activation, L363 target cells) = 0.19
